Values from patent US20240225056A1

Test system: R. toruloides DL-XSY01
method_description: Antibiotic sensitivity test, disc diffusion method
Type: cell-based
condition_details: YPD-agar, 28° C., 24 h
recorded_endpoint: Antibiotic sensitivity of DL-XSY01 (in words)

molecule	tested_on	result
Cc1nnc(SCC2=C(C(=O)O)N3C(=O)[C@@H](NC(=O)Cn4cnnn4)[C@H]3SC2)s1 [Cefazolin]	R. toruloides DL-XSY01	sensitive
CC1(C)S[C@@H]2[C@H](NC(=O)Cc3ccccc3)C(=O)N2[C@H]1C(=O)O [Penicillin G]	R. toruloides DL-XSY01	sensitive
CC[C@H]1OC(=O)[C@H](C)[C@@H](O[C@H]2C[C@@](C)(OC)[C@@H](O)[C@H](C)O2)[C@H](C)[C@@H](O[C@@H]2O[C@H](C)C[C@H](N(C)C)[C@H]2O)[C@](C)(O)C[C@@H](C)C(=O)[C@H](C)[C@@H](O)[C@]1(C)O [Erythromycin]	R. toruloides DL-XSY01	sensitive

====

Tested on: R. toruloides DL-XSY01
method_description: Antibiotic sensitivity test, disc diffusion method
Type: cell-based
condition_details: YPD-agar, 28° C., 24 h
recorded_endpoint: Antibiotic sensitivity of DL-XSY01 (in words)

test_smiles	result
NCC[C@H](O)C(=O)N[C@@H]1C[C@H](N)[C@@H](O[C@H]2O[C@H](CN)[C@@H](O)[C@H](O)[C@H]2O)[C@H](O)[C@H]1O[C@H]1O[C@H](CO)[C@@H](O)[C@H](N)[C@H]1O	sensitive
[H]/N=C(/N)N[C@H]1[C@H](O)[C@@H](O)[C@H](O[C@@H]2O[C@@H](C)[C@](O)(C=O)[C@H]2O[C@@H]2O[C@@H](CO)[C@H](O)[C@@H](O)[C@@H]2NC)[C@@H](N/C(N)=N\[H])[C@@H]1O	sensitive
CC1(C)S[C@@H]2[C@H](NC(=O)[C@H](N)c3ccccc3)C(=O)N2[C@H]1C(=O)O	sensitive
CN[C@H](CC(C)C)C(=O)N[C@H]1C(=O)N[C@@H](CC(N)=O)C(=O)N[C@H]2C(=O)N[C@H]3C(=O)N[C@H](C(=O)N[C@H](C(=O)O)c4cc(O)cc(O)c4-c4cc3ccc4O)[C@H](O)c3ccc(c(Cl)c3)Oc3cc2cc(c3O[C@@H]2O[C@H](CO)[C@@H](O)[C@H](O)[C@H]2O[C@H]2C[C@](C)(N)[C@H](O)[C@H](C)O2)Oc2ccc(cc2Cl)[C@H]1O	sensitive
